The origin of these recorded values is PubChem BioAssay AID2060884.

Test system: NCI-H929 complex spheroids, viability % test/control
Assay: Anticancer human tumor NCI-H929 cell line growth inhibition [RAS];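 note: compound exposure lasted seven days before viability was read; 100% = DMSO vehicle control viability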
Details: second compound 0.03 µM; first compound 0.3 µM; active compounds read low
From the text: RAS pathway inhibitors in Combinations in Complex Spheroids A high-throughput screen of multi-cell type tumor spheroids was designed to identify active combinations of RAS pathway inhibitors and targeted small molecules. Complex spheroids include a stromal component modeled by human endothelial cells (HUVEC) and fibroblasts modeled by human mesenchymal stem cells (MSCs). […] Compounds. […] If the clinical Cmax for an agent had not been determined, the highest concentration tested was 10 microM. […]
In this section, each of the molecules is paired with its reported viability, T/C.

MOLECULE	UNIT OF MEASURE	viability, T/C
CCc1c2c(nc3ccc(O)cc13)-c1cc3c(c(=O)n1C2)COC(=O)[C@]3(O)CC + CCn1c(-c2cccnc2C(C)OC)c2c3cc(ccc31)N1CCOC(CC(NC(=O)C(C(C)C)N(C)C(=O)C3(F)CCN(C(=O)C#CC(C)(C)N(C)C)CC3)C(=O)N3CCCC(N3)C(=O)OCC(C)(C)C2)C1	%	0.42
CC1(C)CCC(Nc2ncc(C(F)(F)F)c(-c3c[nH]c4c(P(C)(C)=O)c(C#N)ccc34)n2)CN1 (centres undefined) + CCn1c(-c2cccnc2C(C)OC)c2c3cc(ccc31)N1CCOC(CC(NC(=O)C(C(C)C)N(C)C(=O)C3(F)CCN(C(=O)C#CC(C)(C)N(C)C)CC3)C(=O)N3CCCC(N3)C(=O)OCC(C)(C)C2)C1	%	1.92
CCc1c2c(nc3ccc(O)cc13)-c1cc3c(c(=O)n1C2)COC(=O)[C@]3(O)CC + CCn1c(-c2cc(N3CCN(C)CC3)cnc2C(C)OC)c2c3cc(ccc31)-c1csc(n1)CC(NC(=O)C1CC1C)C(=O)N1CCCC(N1)C(=O)OCC(C)(C)C2	%	0.6
CC1(C)CCC(Nc2ncc(C(F)(F)F)c(-c3c[nH]c4c(P(C)(C)=O)c(C#N)ccc34)n2)CN1 (centres undefined) + CCn1c(-c2cc(N3CCN(C)CC3)cnc2C(C)OC)c2c3cc(ccc31)-c1csc(n1)CC(NC(=O)C1CC1C)C(=O)N1CCCC(N1)C(=O)OCC(C)(C)C2	%	1.14

* * *

Reported viability, T/C values follow for various compounds
system: NCI-H929 complex spheroids, viability % test/control; test: Anticancer human tumor NCI-H929 cell line growth inhibition [RAS]; conditions: second compound 0.00316 µM; first compound 0.316 µM; active compounds read low;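 note: compound exposure lasted seven days before viability was read; 100% = DMSO vehicle control viability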

COMPOUND	MEASURED ON	UNIT OF MEASURE	viability, T/C
CC(C)NCC(C(=O)N1CCN(c2ncnc3c2C(C)CC3O)CC1)c1ccc(Cl)cc1 (configuration not stated) + C=CC(=O)N1CCN(c2nc(OCC3CCCN3C)nc3c(F)c(-c4nc(N)cc(C)c4C(F)(F)F)c(Cl)cc23)C(C)C1	NCI-H929 complex spheroids, viability % test/control	%	108
C[C@@H](NC(=O)c1ncnc(N)c1Cl)c1ncc(C(=O)Nc2cc(C(F)(F)F)c(Cl)cn2)s1 + C=CC(=O)N1CCN(c2nc(OCC3CCCN3C)nc3c(F)c(-c4nc(N)cc(C)c4C(F)(F)F)c(Cl)cc23)C(C)C1	NCI-H929 complex spheroids, viability % test/control	%	101
Cc1nc(N2CCC3(CC2)COC(C)C3N)c(CO)nc1Sc1ccnc(N)c1Cl (configuration not stated) + C=CC(=O)N1CCN(c2nc(OCC3CCCN3C)nc3c(F)c(-c4nc(N)cc(C)c4C(F)(F)F)c(Cl)cc23)C(C)C1	NCI-H929 complex spheroids, viability % test/control	%	97.1
CCN1CCN(Cc2ccc(Nc3ncc(F)c(-c4cc(F)c5nc(C)n(C(C)C)c5c4)n3)nc2)CC1 + C=CC(=O)N1CCN(c2nc(OCC3CCCN3C)nc3c(F)c(-c4nc(N)cc(C)c4C(F)(F)F)c(Cl)cc23)C(C)C1	NCI-H929 complex spheroids, viability % test/control	%	117
Nc1ccn(C2OC(CO)C(O)C2(F)F)c(=O)n1 (configuration not stated) + C=CC(=O)N1CCN(c2nc(OCC3CCCN3C)nc3c(F)c(-c4nc(N)cc(C)c4C(F)(F)F)c(Cl)cc23)C(C)C1	NCI-H929 complex spheroids, viability % test/control	%	1.73
CC(Nc1ccc2c(c1)OCCn1cc(N3C(=O)OCC3C(F)F)nc1-2)C(N)=O (configuration not stated) + C=CC(=O)N1CCN(c2nc(OCC3CCCN3C)nc3c(F)c(-c4nc(N)cc(C)c4C(F)(F)F)c(Cl)cc23)C(C)C1	NCI-H929 complex spheroids, viability % test/control	%	112
CC(=O)OC12COC1CC(O)C1(C)C(=O)C(O)C3=C(C)C(OC(=O)C(O)C(NC(=O)OC(C)(C)C)c4ccccc4)CC(O)(C(OC(=O)c4ccccc4)C21)C3(C)C (configuration not stated) + C=CC(=O)N1CCN(c2nc(OCC3CCCN3C)nc3c(F)c(-c4nc(N)cc(C)c4C(F)(F)F)c(Cl)cc23)C(C)C1	NCI-H929 complex spheroids, viability % test/control	%	1.35
